Value source: PubChem BioAssay (NCATS)

TEST_DESCRIPTION: Identifying Small Molecule Inhibitors of Pancreatic Cancer Stem Cells (A2780, Spheroid) (AID 1259357);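 note: spheroids pre-formed over 14 days in stem cell medium on hydrogel; compound exposure lasted 48 h before the ATP luminescence read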
REPORTED_CONDITIONS: A2780 spheroid viability; series mostly up to 46.1 µM
Results filed as inconclusive are left out. Activity calls are given as the source filed them. Calls come from the whole dose curve; as a rule, active = well fitted cell-killing curve with a large enough effect; inconclusive = small, poorly fitted or top-dose-only effect, or effect the other way, or another doubt; inactive = no such curve, though single readings can be large or run the other way.
Outcome codes: yes (1) (active), no (0) (inactive)

[
  {
    "SMILES_STRUCTURE": "CC(C)(C)COc1ccc(-n2cc(C(=O)O)cn2)cc1C#N",
    "GROUP": "no (0)"
  },
  {
    "SMILES_STRUCTURE": "COc1cc2ncnc(-n3nc(-c4ccccn4)nc3N)c2cc1OC",
    "GROUP": "no (0)"
  },
  {
    "SMILES_STRUCTURE": "CCOC(CN1C(=O)[C@](CC(=O)Nc2ccc(C)cc2)(NC(=O)Nc2ccc(C)cc2)c2ccccc21)OCC",
    "GROUP": "yes (1)"
  },
  {
    "SMILES_STRUCTURE": "CC(=O)N(C)C1(c2ccccc2)CCN(CCC[C@]2(c3ccc(Cl)c(Cl)c3)CCCN(C(=O)c3ccccc3)C2)CC1",
    "GROUP": "yes (1)"
  },
  {
    "SMILES_STRUCTURE": "CN1CCN(CCOc2cc(OC3CCOCC3)c3c(Nc4c(Cl)ccc5c4OCO5)ncnc3c2)CC1",
    "GROUP": "no (0)"
  },
  {
    "SMILES_STRUCTURE": "OC[C@H]1O[C@@H](n2cnc3c2NC=NC[C@@H]3O)C[C@H]1O",
    "GROUP": "no (0)"
  },
  {
    "SMILES_STRUCTURE": "CCOc1ccc(Nc2nc(-c3c(C)nc4ccccn34)cs2)cc1",
    "GROUP": "yes (1)"
  },
  {
    "SMILES_STRUCTURE": "COc1cc(Nc2ncc(F)c(Nc3ccc4c(n3)NC(=O)C(C)(C)O4)n2)cc(OC)c1OC",
    "GROUP": "no (0)"
  },
  {
    "SMILES_STRUCTURE": "COc1ncc(-c2ccc3nccc(-c4ccnnc4)c3c2)cc1NS(=O)(=O)c1ccc(F)cc1F",
    "GROUP": "yes (1)"
  }
]
